What follows is a record of MIC for S. marcescens SM.
Counter-ions that a name gives are not always drawn.

molecule: CCn1cc(C(=O)OCC2=C(C(=O)O)N3C(=O)[C@@H](NC(=O)Cc4cccs4)[C@H]3SC2)c(=O)c2cc(F)c(N3CCN(C=O)CC3)cc21 [Compound G, sodium salt]
MIC / µg/mL: 4
//
molecule: CCn1cc(C(=O)OCC2=C(C(=O)O)N3C(=O)[C@@H](NC(=O)/C(=N\OC)c4csc(N)n4)[C@H]3SC2)c(=O)c2cc(F)c(N3CCCC3)cc21 [Compound I, sodium salt]
MIC / µg/mL: 1
//
molecule: CCn1cc(C(=O)OCC2=C(C(=O)O)N3C(=O)[C@@H](NC(=O)Cc4cccs4)[C@H]3SC2)c(=O)c2cc3c(cc21)OCO3 [Compound F, sodium salt]
MIC / µg/mL: 1
//
molecule: CCn1cc(C(=O)OCC2=C(C(=O)O)N3C(=O)[C@@H](NC(=O)COc4ccccc4)[C@H]3SC2)c(=O)c2cc3c(cc21)OCO3 [Compound B, monosodium salt]
MIC / µg/mL: 1
//
molecule: CCn1cc(C(=O)OCC2=C(C(=O)O)N3C(=O)[C@@H](NC(=O)COc4ccccc4)[C@H]3SC2)c(=O)c2cc(F)c(N3CCN(C=O)CC3)cc21 [Compound E, sodium salt]
MIC / µg/mL: 4
